Could you please report measured pIC50 for the items listed next?
Molecular target: Human immunodeficiency virus type 1 integrase (Human immunodeficiency virus 1, UniProt Q7ZJM1)
Sequence (Q7ZJM1 whole entry): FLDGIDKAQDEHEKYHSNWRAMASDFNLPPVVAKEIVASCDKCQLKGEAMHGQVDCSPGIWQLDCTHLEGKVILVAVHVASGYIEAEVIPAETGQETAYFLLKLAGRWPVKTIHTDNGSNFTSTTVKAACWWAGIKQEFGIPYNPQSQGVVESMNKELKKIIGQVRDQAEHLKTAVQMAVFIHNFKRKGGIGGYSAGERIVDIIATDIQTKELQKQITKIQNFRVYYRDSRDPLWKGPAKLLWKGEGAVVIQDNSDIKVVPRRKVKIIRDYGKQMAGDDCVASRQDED
Experiment: Inhibition of HIV1 recombinant integrase strand transfer activity
// pIC50 is dimensionless: -log10 of concentration (M)

Challenge: What pIC50 value was documented for this compound, O=S1(=O)CCCCN1c1nc(-c2nnc(Cc3ccc(F)cc3)o2)c(O)c2ncccc12 ?
Response given: 8.70

Challenge: What pIC50 value was documented for this compound, Oc1c(-c2nnc(CCc3ccccc3)[nH]2)ncc2cccnc12 ?
Response given: 5.62

Challenge: What pIC50 value was documented for this compound, Oc1c(-c2nnc(Cc3ccccc3)[nH]2)ncc2cccnc12 ?
Response given: 6.44

Challenge: What pIC50 value was documented for this compound, O=S1(=O)CCCCN1c1nc(-c2nnc(Cc3ccc(F)cc3)[nH]2)c(O)c2ncccc12 ?
Response given: 7.96

Challenge: What pIC50 value was documented for this compound, Oc1c(-c2nnc(Cc3ccc(Cl)cc3)[nH]2)ncc2cccnc12 ?
Response given: 6.19

Challenge: What pIC50 value was documented for this compound, Oc1c(-c2nnc(Cc3ccc(F)cc3)[nH]2)ncc2cccnc12 ?
Response given: 6.89

Challenge: What pIC50 value was documented for this compound, COc1cccc(Cc2nnc(-c3ncc4cccnc4c3O)[nH]2)c1 ?
Response given: 5.55

Challenge: What pIC50 value was documented for this compound, COc1ccc(Cc2nnc(-c3ncc4cccnc4c3O)[nH]2)cc1OC ?
Response given: 5.20

Challenge: What pIC50 value was documented for this compound, Oc1c(-c2nnc(Cc3cccc(Cl)c3)[nH]2)ncc2cccnc12 ?
Response given: 5.99

Challenge: What pIC50 value was documented for this compound, Oc1c(-c2noc(Cc3ccccc3)n2)ncc2cccnc12 ?
Response given: 6.02

Challenge: What pIC50 value was documented for this compound, Oc1c(-c2nnc(Cc3ccccc3)o2)ncc2cccnc12 ?
Response given: 6.89

Challenge: What pIC50 value was documented for this compound, Oc1c(-c2nnc(Cc3ccncc3)[nH]2)ncc2cccnc12 ?
Response given: 5.34

Challenge: What pIC50 value was documented for this compound, Oc1c(-c2nnc(Cc3ccc(F)cc3)o2)ncc2cccnc12 ?
Response given: 7.38

Challenge: What pIC50 value was documented for this compound, Cn1nc(-c2ncc3cccnc3c2O)nc1Cc1ccc(F)cc1 ?
Response given: 5.10

Challenge: What pIC50 value was documented for this compound, Oc1c(-c2noc(Cc3ccc(F)cc3)n2)ncc2cccnc12 ?
Response given: 6.89

Challenge: What pIC50 value was documented for this compound, Oc1c(-c2nnc(Cc3cccnc3)[nH]2)ncc2cccnc12 ?
Response given: 5.46

Challenge: What pIC50 value was documented for this compound, O=C(NCc1ccc(F)cc1)c1ncc2cccnc2c1O ?
Response given: 7.92

====

Could you please report measured IC50 for the items listed next?
Biological target: Human immunodeficiency virus type 1 integrase (Human immunodeficiency virus 1, UniProt Q7ZJM1)
Assay: Inhibition of HIV1 recombinant integrase strand transfer activity

Challenge: What IC50 value was documented for this compound, Oc1c(-c2noc(-c3ccccc3)n2)ncc2cccnc12 ?
Response given: > 100 µM

Challenge: What IC50 value was documented for this compound, Cn1nc(Cc2ccc(F)cc2)nc1-c1ncc2cccnc2c1O ?
Response given: > 500 µM

Challenge: What IC50 value was documented for this compound, O=S1(=O)CCCCN1c1nc(-c2noc(Cc3ccc(F)cc3)n2)c(O)c2ncccc12 ?
Response given: > 100 µM
